- Test system: uterus
- Assay Remarks: Anti-uterus growth test in the adult rat
- Test Conditions: sc, 72 h; ovariectomized adult rat, s.c. 3 days with 1.5 μg/kg/day 17β-estradiol; inhibition of uterus growth; value of 44 is a mean of two measurements; read-out: anti-oestrogenic activity in vivo in % at a dose of 0.3 mg/kg (rat)
I would appreciate it if you labelled entries Y when inhibition in vivo at 0.3 mg/kg is 70% or higher, otherwise N.

# bool: inhibition in vivo at 0.3 mg/kg of CN(CCCCCCC1=C(c2cccc(F)c2)CCCc2cc(O)ccc21)CCCS(=O)(=O)CCCC(F)(F)C(F)(F)F [Example 125] >= 70% Y

# bool: inhibition in vivo at 0.3 mg/kg of CN(CCCCCCC1=C(c2cc(F)cc(F)c2)CCCc2cc(O)ccc21)CCCS(=O)(=O)CCCC(F)(F)F [Example 7] >= 70% N

# bool: inhibition in vivo at 0.3 mg/kg of CN(CCCCCCC1=C(c2cccc(F)c2)CCCc2cc(O)ccc21)CCCCS(=O)(=O)CCCC(F)(F)C(F)(F)F [Example 124] >= 70% N

# bool: inhibition in vivo at 0.3 mg/kg of CN(CCCCCCC1=C(c2ccc(F)cc2)CCCc2cc(O)ccc21)CCCCS(=O)(=O)CCCC(F)(F)C(F)(F)F [Example 114] >= 70% N

# bool: inhibition in vivo at 0.3 mg/kg of CN(CCCCCCC1=C(c2ccc(F)cc2)CCCc2cc(O)ccc21)CCCCS(=O)(=O)CCCC(F)(F)F [Example 48] >= 70% Y

# bool: inhibition in vivo at 0.3 mg/kg of CN(CCCCCCC1=C(c2ccc(F)c(F)c2)CCCc2cc(O)ccc21)CCCCS(=O)(=O)CCCC(F)(F)F [Example 45] >= 70% Y

# bool: inhibition in vivo at 0.3 mg/kg of CN(CCCCCCC1=C(c2ccc(F)cc2)CCCc2cc(O)ccc21)CCC[S+]([O-])CCCC(F)(F)C(F)(F)F (centres unmarked) [Example 118] >= 70% Y

# bool: inhibition in vivo at 0.3 mg/kg of CN(CCCCCCC1=C(c2ccc(F)cc2)CCCc2cc(O)ccc21)CCCS(=O)(=O)CCC(F)(F)C(F)(F)F [Example 116] >= 70% N

# bool: inhibition in vivo at 0.3 mg/kg of CN(CCCCCCC1=C(c2ccc(F)cc2)CCCc2cc(O)ccc21)CCCS(=O)(=O)CCCCC(F)(F)F [Example 80] >= 70% N

# bool: inhibition in vivo at 0.3 mg/kg of CN(CCCCCCC1=C(c2ccc(F)c(F)c2)CCCc2cc(O)ccc21)CCCS(=O)(=O)CCCC(F)(F)F [Example 23] >= 70% N

# bool: inhibition in vivo at 0.3 mg/kg of CN(CCCCCCC1=C(c2ccc(F)cc2)CCCc2cc(O)ccc21)CCCS(=O)(=O)CCCC(F)(F)F [Example 117] >= 70% N

---

- Test system: ovarian estradiol synthesis
- Assay Remarks: Stimulation of ovarian oestrogen synthesis (HPG axis) in intact adult rats
- Type: in vivo, rat
- Test Conditions: hormonally intact adult rats, daily for 10 days; quotient of peripheral estradiol values after and before treatment
Counter-ions that a name gives are not always drawn.
Provide the reported Stimulation of ovarian oestrogen synthesis: factor at a dose of 3 mg/kg rat of each item.
A bare number is all that is needed in reply.

Request the reported Stimulation of ovarian oestrogen synthesis: factor at a dose of 3 mg/kg rat associated with CN(CCCCCCC1=C(c2ccc(F)cc2)CCCc2cc(O)ccc21)CCCCS(=O)(=O)CCCC(F)(F)C(F)(F)F [Example 114] 1.4

Request the reported Stimulation of ovarian oestrogen synthesis: factor at a dose of 3 mg/kg rat associated with O=C(c1ccc(OCCN2CCCCC2)cc1)c1c(-c2ccc(O)cc2)sc2cc(O)ccc12 [Raloxifene hydrochloride, Raloxifene, reference compound] 3.1

Request the reported Stimulation of ovarian oestrogen synthesis: factor at a dose of 3 mg/kg rat associated with CN(CCCCCCC1=C(c2ccc(F)cc2)CCCc2cc(O)ccc21)CCCS(=O)(=O)CCCC(F)(F)C(F)(F)F [Example 115] 2.7
